meta.source: patent US20090203766

Biological target: von Willebrand factor (vWF) (Homo sapiens, UniProt P04275 P04275:764-2813)
Sequence (P04275 764-2813, one chain of several): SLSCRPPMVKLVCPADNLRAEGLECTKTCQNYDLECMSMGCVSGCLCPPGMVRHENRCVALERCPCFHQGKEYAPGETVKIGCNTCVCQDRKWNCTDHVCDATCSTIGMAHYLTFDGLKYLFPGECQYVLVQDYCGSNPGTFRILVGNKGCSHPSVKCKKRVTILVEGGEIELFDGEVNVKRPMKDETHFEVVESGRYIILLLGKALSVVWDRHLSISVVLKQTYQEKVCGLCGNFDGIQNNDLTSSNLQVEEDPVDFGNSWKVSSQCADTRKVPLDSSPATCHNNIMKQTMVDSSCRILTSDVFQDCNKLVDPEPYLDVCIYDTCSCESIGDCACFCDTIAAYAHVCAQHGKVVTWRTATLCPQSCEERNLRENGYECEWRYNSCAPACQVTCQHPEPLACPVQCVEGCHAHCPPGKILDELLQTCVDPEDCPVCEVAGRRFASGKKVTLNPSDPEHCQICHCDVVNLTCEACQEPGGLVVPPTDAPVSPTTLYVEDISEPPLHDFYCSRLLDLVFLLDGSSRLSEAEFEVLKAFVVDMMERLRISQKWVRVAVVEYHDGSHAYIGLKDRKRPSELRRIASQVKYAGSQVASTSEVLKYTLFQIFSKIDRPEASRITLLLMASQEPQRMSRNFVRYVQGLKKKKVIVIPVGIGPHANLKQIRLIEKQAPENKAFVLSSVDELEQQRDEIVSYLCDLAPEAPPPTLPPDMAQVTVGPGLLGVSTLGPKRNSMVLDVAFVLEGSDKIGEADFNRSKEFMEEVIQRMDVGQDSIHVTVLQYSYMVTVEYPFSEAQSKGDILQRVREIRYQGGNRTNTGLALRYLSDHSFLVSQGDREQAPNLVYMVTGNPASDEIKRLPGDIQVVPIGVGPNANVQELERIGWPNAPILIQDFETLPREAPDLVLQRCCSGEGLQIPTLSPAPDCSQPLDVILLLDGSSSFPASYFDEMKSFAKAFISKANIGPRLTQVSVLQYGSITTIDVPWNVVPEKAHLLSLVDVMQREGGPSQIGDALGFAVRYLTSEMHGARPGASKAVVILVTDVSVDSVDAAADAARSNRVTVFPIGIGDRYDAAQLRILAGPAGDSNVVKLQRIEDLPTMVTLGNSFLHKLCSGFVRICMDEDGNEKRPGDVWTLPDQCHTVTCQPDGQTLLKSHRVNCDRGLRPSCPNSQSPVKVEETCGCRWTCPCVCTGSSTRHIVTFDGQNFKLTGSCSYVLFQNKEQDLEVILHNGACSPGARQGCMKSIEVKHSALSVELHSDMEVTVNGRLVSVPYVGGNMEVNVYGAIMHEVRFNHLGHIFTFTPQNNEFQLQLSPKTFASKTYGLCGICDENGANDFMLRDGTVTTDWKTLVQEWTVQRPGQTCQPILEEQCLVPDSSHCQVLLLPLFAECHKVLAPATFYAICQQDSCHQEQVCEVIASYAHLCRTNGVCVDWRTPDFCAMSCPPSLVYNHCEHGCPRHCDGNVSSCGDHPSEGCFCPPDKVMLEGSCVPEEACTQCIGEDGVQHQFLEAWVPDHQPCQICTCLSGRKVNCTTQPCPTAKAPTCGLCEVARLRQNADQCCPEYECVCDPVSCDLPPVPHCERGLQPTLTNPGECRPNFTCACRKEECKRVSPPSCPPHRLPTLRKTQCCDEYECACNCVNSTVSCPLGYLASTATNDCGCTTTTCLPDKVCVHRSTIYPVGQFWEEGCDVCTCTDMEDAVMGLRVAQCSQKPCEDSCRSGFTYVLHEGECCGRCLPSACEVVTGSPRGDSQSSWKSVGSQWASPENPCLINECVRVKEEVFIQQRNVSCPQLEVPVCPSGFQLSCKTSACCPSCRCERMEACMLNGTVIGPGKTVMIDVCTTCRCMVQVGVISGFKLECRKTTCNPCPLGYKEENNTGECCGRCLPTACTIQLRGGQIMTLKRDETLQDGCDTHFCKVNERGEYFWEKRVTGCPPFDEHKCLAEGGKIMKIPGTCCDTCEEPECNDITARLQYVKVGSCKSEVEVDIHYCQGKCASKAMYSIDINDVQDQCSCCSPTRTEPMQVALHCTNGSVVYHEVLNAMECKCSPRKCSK
Experiment: filter; text gives value as affinity of ARC1779 for vWF; PBS, 0.1 mg/ml BSA, room temperature 30 min
Conditions: label: 5'-32P
From the text: For binding assays, the oligonucleotide core of ARC1779 was synthesized with a 5′-terminal hydroxyl moiety instead of a 5′ hexylamine and 20 kDa PEG and subsequently 5′-end labeled with γ-³²P ATP using T4 polynucleotide kinase (New England BioLabs, Beverly, Mass.). […] Radioactivity associated with protein:DNA complexes (nitrocellulose) and free DNA (nylon) was quantified on a Storm 860 Phosphorimager (Molecular Dynamics/Amersham, Piscataway, N.J.). […]
metric_name: Kd

Ask | For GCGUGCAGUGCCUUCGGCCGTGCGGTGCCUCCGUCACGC (mixed, same 2'-OMe/deoxy/PS/3'-inverted dT pattern as ARC1779, 5'-OH instead of hexylamine-PEG) [ARC1779 oligonucleotide core (no PEG)] , write its Kd.
Reply | ~2 nM
